Origin of values: paper PMC7059199

ASSAY_OVERVIEW: Pharmacokinetic profile in mice
Assay type: in vivo
MEASUREMENT_PARAMETERS: mouse, in vivo, intravenous 5 mg/kg
PROPERTY_NAME: AUC(0-t)
Could you kindly put the unit after your number?

input: Given CCCCCCCC(OCC(=O)O)c1ccc(Cl)cc1 (stereo not shown) [VSP-77] , state its recorded AUC(0-t).
output: 5000 ng·h/mL

* * *

ASSAY_TARGET: GST-PPARγ LBD (Homo sapiens, UniProt P37231)
Construct: 0.5 nM GST-PPARγ LBD was incubated with 5 nM Fluormone™; purchased Invitrogen
Sequence (P37231 238-503 limits assumed): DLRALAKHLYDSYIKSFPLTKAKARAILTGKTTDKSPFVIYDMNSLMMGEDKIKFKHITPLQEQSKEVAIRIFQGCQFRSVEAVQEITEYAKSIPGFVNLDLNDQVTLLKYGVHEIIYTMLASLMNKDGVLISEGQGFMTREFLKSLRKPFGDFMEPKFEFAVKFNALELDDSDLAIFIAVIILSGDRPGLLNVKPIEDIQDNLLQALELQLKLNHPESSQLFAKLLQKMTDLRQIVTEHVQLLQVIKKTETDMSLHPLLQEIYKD
ASSAY_OVERVIEW: LanthaScreen TR-FRET competitive binding assay, PPARγ
MEASUREMENT_PARAMETERS: competition of Fluormone (5 nM); 0.5 nM GST-PPARγ LBD
PROPERTY_NAME: Ki (µM)
Give just the numeric value; µM need not be written.

* CCCCCCCC(OCC(=O)O)c1ccc(Cl)cc1 (centres unmarked) | 4.8

Now turn to the next compound.
input: Kindly state the measured Ki obtained for CCCCCCCCCC(=O)O [DA, decanoic acid, reference compound] with GST-PPARγ LBD (Homo sapiens, UniProt P37231).
output: 50.5

* * *

ASSAY_TARGET: hERG potassium ion channel (Homo sapiens, UniProt Q12809)
Sequence (Q12809 whole entry): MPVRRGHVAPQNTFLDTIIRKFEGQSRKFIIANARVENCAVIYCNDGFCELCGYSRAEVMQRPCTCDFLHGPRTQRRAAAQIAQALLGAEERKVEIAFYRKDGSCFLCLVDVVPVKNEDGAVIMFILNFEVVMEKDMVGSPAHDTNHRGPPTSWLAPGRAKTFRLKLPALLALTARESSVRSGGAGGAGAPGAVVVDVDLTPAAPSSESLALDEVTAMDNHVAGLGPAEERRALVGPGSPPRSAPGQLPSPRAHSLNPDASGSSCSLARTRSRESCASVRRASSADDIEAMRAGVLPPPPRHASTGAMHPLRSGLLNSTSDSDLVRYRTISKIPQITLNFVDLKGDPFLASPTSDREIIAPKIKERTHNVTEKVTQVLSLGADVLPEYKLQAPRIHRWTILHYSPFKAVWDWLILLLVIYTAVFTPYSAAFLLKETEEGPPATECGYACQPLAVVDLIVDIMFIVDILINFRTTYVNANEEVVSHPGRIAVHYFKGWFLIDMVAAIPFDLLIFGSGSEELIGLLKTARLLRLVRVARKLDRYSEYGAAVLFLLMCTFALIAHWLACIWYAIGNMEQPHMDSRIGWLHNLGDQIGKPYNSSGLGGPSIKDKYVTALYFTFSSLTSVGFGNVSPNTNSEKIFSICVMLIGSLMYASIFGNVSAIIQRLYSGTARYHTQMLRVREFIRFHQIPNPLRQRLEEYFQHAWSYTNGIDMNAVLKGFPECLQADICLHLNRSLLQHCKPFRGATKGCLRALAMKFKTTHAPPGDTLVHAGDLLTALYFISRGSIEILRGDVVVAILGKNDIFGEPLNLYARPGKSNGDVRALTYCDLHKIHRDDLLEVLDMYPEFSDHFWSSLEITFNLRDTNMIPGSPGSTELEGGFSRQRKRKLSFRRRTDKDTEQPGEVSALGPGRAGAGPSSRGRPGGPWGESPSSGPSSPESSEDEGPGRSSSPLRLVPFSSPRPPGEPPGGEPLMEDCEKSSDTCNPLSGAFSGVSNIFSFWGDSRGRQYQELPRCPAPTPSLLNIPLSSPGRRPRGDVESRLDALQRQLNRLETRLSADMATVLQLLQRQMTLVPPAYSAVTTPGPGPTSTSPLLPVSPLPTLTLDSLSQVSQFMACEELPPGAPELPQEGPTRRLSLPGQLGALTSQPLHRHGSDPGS
ASSAY_OVERVIEW: Inhibition assay on the hERG potassium ion channel
pIC50: −log10 of the molar value.
PROPERTY_NAME: pIC50

input: Given CCCCCCCC(OCC(=O)O)c1ccc(Cl)cc1 (stereo not shown) , state its recorded pIC50.
output: < 4.30
